Listing of entries alongside the reported Test A Sinf.
target.under.test: human RXFP1 (Homo sapiens, UniProt Q9HBX9)
Sequence (Q9HBX9 whole entry): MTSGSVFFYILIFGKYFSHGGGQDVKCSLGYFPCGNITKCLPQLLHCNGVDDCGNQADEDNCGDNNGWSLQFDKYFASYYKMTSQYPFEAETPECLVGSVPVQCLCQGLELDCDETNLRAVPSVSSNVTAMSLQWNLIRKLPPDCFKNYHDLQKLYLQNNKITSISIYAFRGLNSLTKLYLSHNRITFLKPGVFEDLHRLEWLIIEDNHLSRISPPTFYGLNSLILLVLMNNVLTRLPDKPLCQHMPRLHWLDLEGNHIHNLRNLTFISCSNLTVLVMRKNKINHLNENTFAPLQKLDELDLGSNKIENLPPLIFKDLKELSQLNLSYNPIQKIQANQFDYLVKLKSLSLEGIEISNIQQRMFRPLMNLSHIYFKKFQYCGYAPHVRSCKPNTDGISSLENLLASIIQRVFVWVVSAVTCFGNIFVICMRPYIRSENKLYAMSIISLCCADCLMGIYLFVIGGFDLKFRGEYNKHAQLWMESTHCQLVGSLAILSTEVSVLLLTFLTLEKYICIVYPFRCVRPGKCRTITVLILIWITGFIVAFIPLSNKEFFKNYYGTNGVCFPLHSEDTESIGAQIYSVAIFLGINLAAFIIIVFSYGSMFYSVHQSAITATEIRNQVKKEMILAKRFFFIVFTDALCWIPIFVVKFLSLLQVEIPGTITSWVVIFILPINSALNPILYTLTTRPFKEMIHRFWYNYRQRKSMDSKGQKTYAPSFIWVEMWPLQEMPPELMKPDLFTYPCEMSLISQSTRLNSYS
assay: RXFP1 Hu cAMP (Test A)
Assay type: cell-based
Design: expressed in transfected cells; host or cells: Jump-In T-REx CHO-K1 cells (ThermoFisher), induced with 10 ng/ml doxycycline for 24 h
measurement.conditions: RXFP1 Hu cAMP
I only need the number, in %, no unit after it.

COc1cc(F)c(-c2ccc(C(N)=O)cc2)cc1C(=O)N[C@H]1[C@@H](C(=O)Nc2cccc(S(=O)(=O)C(F)(F)F)c2)[C@@H]2C=C[C@H]1C2 = 107
COc1cc(F)c(-c2cccc(CCC(=O)O)c2)cc1C(=O)N[C@H]1[C@@H](C(=O)Nc2cccc(S(=O)(=O)C(F)(F)F)c2)[C@@H]2C=C[C@H]1C2 (racemic) = 105
COc1cc(C#N)c(O[C@H]2CC[C@@](C)(C(=O)O)CC2)cc1C(=O)N[C@@H]1[C@H]2CC[C@H](C2)[C@@H]1C(=O)NC(C)(C)CF = 108

Read off the recorded Test A Sinf for COc1cc(F)c(O[C@H]2CC[C@@H](C(=O)O)CC2)cc1C(=O)N[C@@H]1[C@H]2CC[C@H](C2)[C@@H]1C(=O)Nc1ccc(S(=O)(=O)C(F)(F)F)cc1
94

----------
assay: Human Liver Microsomal Stability (Test C)
Format: in vitro ADME
measurement.conditions: human, liver microsomes
Field 'label' (enum: 1 (yes) / 0 (no)). Set to 1 (yes) when microsomal CLint is strictly under 10 µL/min/mg; else 0 (no).

Here's what some known entries look like.
COc1cc(Cl)c(O[C@H]2CC[C@@](C)(C(=O)O)CC2)cc1C(=O)N[C@@H]1[C@H]2CC[C@H](C2)[C@@H]1C(=O)NCC(C)(C)C [Example 412] = 0 (no)
COc1cc(F)c(O[C@H]2CC[C@@](C)(C(=O)O)CC2)cc1C(=O)N[C@@H]1[C@H]2CC[C@H](C2)[C@@H]1C(=O)NCC1CCC1 [Example 2] = 0 (no)
COc1cc(F)c(-c2ccc([C@@H]3C[C@H]3C(=O)O)nc2)cc1C(=O)N[C@@H]1[C@H]2CC[C@H](C2)[C@@H]1C(=O)Nc1cccc(S(=O)(=O)C(F)(F)F)c1 (single isomer, unassigned) [Example 261] = 0 (no)
COc1cc(F)c(-c2cnc(CCC(=O)O)cn2)cc1C(=O)N[C@@H]1[C@H]2CC[C@H](C2)[C@@H]1C(=O)Nc1cccc(S(=O)(=O)C(F)(F)F)c1 [Example 238] = 0 (no)
COc1cc(F)c(O[C@H]2CC[C@@](C)(C(=O)O)CC2)cc1C(=O)Nc1ccc(C)cc1C(=O)NCC1(C)CCC1 [Example 216] = 1 (yes)

Given the entry CC1(CNC(=O)[C@H]2[C@@H]3CC[C@@H](C3)[C@H]2NC(=O)c2cc(O[C@H]3CC[C@@](C)(C(=O)O)CC3)c(F)cc2OCF)CCC1 [Example 4] , would its reported microsomal CLint be below 10 µL/min/mg?
0 (no)

Below 10 µL/min/mg on microsomal CLint? Entry COc1cc(F)c(-c2ccc(CCC(=O)O)cc2)cc1C(=O)N[C@H]1[C@@H](C(=O)Nc2cccc(S(=O)(=O)C(F)(F)F)c2)[C@@H]2C=C[C@H]1C2 (racemic) [Example 283]
0 (no)

Is microsomal CLint strictly under 10 µL/min/mg for the entry COCC1(CNC(=O)[C@H]2[C@@H]3CC[C@@H](C3)[C@H]2NC(=O)c2cc(O[C@H]3CC[C@@](C)(C(=O)O)CC3)c(C#N)cc2OC)CC1 [Example 79] ?
1 (yes)

Quick check: microsomal CLint of CC1(CNC(=O)[C@H]2[C@@H]3CC[C@@H](C3)[C@H]2NC(=O)c2cc(O[C@H]3CC[C@@](C)(C(=O)O)CC3)c(F)cc2OC(F)F)CCC1 [Example 207] under 10 µL/min/mg?
0 (no)

Is it true that microsomal CLint reported for COc1cc(F)c(O[C@H]2CC[C@@](C)(C(=O)O)CC2)cc1C(=O)Nc1cc2ccccc2cc1C(=O)NCC1(C)CCC1 [Example 215] is less than 10 µL/min/mg?
1 (yes)

hey, is microsomal CLint for COc1cc(Cl)c(O[C@H]2CC[C@@](C)(C(=O)O)CC2)cc1C(=O)N[C@@H]1[C@H]2CC[C@H](C2)[C@@H]1C(=O)NC12CC(F)(C1)C2 [Example 411] lower than 10 µL/min/mg or not?
1 (yes)

// data source = patent US11667602B2
